Listing of entries alongside the reported TGI.
- System: HS 578T breast
- Test details: NCI tumour cell line growth inhibition, 48 h
Give the value in µM but do not write µM after it.

Known results for compounds:
INSERT INTO measurements (compound, units, measured) VALUES
  ('Cc1c(C(=O)OCc2ccccc2)[n+](=O)c2cc(Cl)c(Cl)cc2n1[O-]', 'µM', 47.4),
  ('CCCCCCCCNCCC[C@@H](C)[C@H]1CC[C@H]2[C@@H]3[C@H](OCCCN)C[C@H]4C[C@H](OCCCN)CC[C@]4(C)[C@H]3C[C@H](OCCCN)[C@]12C', 'µM', 5.59),
  ('C=C1CCC2(C#N)[C@H]3[C@H](CC[C@@H]2C)[C@@H](C)C[C@@H](CC(C)(C)NC(=O)CN2CCC2=O)[C@H]13 (stereo partly drawn)', 'µM', 30.7);

Could you now look at the following compound, please?
Measured on HS 578T breast, COc1cc2c(cc1OCCCCCCN1CCN(CC(=O)Nc3ccc(Cl)cc3C(=O)c3ccccc3Cl)CC1)N=CC1CCCN1C2=O (stereo not drawn) has a documented TGI of 0.589
